TEST_READOUT: melting point

Worked cases, melting point given:
> print(dat)
                              record.smiles   test.readout     value.measured
1  Cc1ccc2c(c1)/C(=C1/SC(=Nc3ccccc3)N(Nc3ccc(S(N)(=O)=O)cc3)C1=O)C(=O)N2  melting point  333.9 to 334.6 °C
2  COc1ccc2c(c1)/C(=C1/SC(=Nc3ccccc3)N(Nc3ccc(S(N)(=O)=O)cc3)C1=O)C(=O)N2  melting point  328.8 to 330.1 °C
3  NS(=O)(=O)c1ccc(NN2C(=O)/C(=C3/C(=O)Nc4c(F)cccc43)SC2=Nc2ccccc2)cc1  melting point  336.1 to 336.6 °C
4  NS(=O)(=O)c1ccc(NN2C(=O)/C(=C3/C(=O)Nc4ccc(F)cc43)SC2=Nc2ccccc2)cc1  melting point  297.5 to 299.8 °C

I need melting point for every entry listed below, if you could help.
1. NS(=O)(=O)c1ccc(NN2C(=O)/C(=C3/C(=O)Nc4ccc([N+](=O)[O-])cc43)SC2=Nc2ccccc2)cc1
2. NS(=O)(=O)c1ccc(NN2C(=O)/C(=C3/C(=O)Nc4ccc(Br)cc43)SC2=Nc2ccccc2)cc1
3. NS(=O)(=O)c1ccc(NN2C(=O)/C(=C3/C(=O)Nc4c(Br)cccc43)SC2=Nc2ccccc2)cc1
4. NS(=O)(=O)c1ccc(NN2C(=O)/C(=C3/C(=O)Nc4ccc(Cl)cc43)SC2=Nc2ccccc2)cc1

1. 338.5 to 340 °C
2. 331.4 to 332.7 °C
3. 344.9 to 346 °C
4. 314.2 to 316.1 °C

====

target: hCA XII (Homo sapiens, UniProt O43570); test: Stopped-flow CA-catalyzed CO2 hydration inhibition assay
Sequence (O43570 30-289 limits assumed): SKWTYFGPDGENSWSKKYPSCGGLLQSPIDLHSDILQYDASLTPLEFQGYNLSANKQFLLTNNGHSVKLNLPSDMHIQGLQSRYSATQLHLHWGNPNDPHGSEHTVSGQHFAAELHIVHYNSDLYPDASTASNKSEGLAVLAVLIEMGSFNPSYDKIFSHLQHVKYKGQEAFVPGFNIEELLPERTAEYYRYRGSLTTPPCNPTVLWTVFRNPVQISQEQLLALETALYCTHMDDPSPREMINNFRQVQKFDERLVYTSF
TEST_READOUT: pKi
One number for each entry, as −log10 of the molar value.

> print(dat)
                              record.smiles                             system.name  test.readout  value.measured
1  NS(=O)(=O)c1ccc(NN2C(=O)/C(=C3/C(=O)Nc4ccc([N+](=O)[O-])cc43)SC2=Nc2ccccc2)cc1  hCA XII (Homo sapiens, UniProt O43570)           pKi            8.12
2  Cc1ccc2c(c1)/C(=C1/SC(=Nc3ccccc3)N(Nc3ccc(S(N)(=O)=O)cc3)C1=O)C(=O)N2  hCA XII (Homo sapiens, UniProt O43570)           pKi            9.22
3  NS(=O)(=O)c1ccc(NN2C(=O)/C(=C3/C(=O)Nc4c(Br)cccc43)SC2=Nc2ccccc2)cc1  hCA XII (Homo sapiens, UniProt O43570)           pKi            7.03
4  COc1ccc2c(c1)/C(=C1/SC(=Nc3ccccc3)N(Nc3ccc(S(N)(=O)=O)cc3)C1=O)C(=O)N2  hCA XII (Homo sapiens, UniProt O43570)           pKi            7.27
5  NS(=O)(=O)c1ccc(NN2C(=O)/C(=C3/C(=O)Nc4ccc(Cl)cc43)SC2=Nc2ccccc2)cc1  hCA XII (Homo sapiens, UniProt O43570)           pKi            7.21
6  NS(=O)(=O)c1ccc(NN2C(=O)/C(=C3/C(=O)Nc4c(F)cccc43)SC2=Nc2ccccc2)cc1  hCA XII (Homo sapiens, UniProt O43570)           pKi            8.89

As a next step, examine the compound that follows.
Entry "NS(=O)(=O)c1ccc(NN2C(=O)/C(=C3/C(=O)Nc4ccccc43)SC2=Nc2ccccc2)cc1" , pKi reported as 7.77
